- study.target: MAP1LC3A 2-121, Q9H492
property.measured: selected by phage display

WTDLENSIVSVERMQD [ABCC6, O95255] = confidence 3 (active)
TDTHWTDLTHLIEKLK [TRIM59, Q8IWR1] = confidence 3 (active)
